Quick reference for GI50 among some molecules
- measured on: BaF3_HER2WT cells (Homo sapiens, UniProt P04626)
- Sequence (P04626 whole entry, change not shown): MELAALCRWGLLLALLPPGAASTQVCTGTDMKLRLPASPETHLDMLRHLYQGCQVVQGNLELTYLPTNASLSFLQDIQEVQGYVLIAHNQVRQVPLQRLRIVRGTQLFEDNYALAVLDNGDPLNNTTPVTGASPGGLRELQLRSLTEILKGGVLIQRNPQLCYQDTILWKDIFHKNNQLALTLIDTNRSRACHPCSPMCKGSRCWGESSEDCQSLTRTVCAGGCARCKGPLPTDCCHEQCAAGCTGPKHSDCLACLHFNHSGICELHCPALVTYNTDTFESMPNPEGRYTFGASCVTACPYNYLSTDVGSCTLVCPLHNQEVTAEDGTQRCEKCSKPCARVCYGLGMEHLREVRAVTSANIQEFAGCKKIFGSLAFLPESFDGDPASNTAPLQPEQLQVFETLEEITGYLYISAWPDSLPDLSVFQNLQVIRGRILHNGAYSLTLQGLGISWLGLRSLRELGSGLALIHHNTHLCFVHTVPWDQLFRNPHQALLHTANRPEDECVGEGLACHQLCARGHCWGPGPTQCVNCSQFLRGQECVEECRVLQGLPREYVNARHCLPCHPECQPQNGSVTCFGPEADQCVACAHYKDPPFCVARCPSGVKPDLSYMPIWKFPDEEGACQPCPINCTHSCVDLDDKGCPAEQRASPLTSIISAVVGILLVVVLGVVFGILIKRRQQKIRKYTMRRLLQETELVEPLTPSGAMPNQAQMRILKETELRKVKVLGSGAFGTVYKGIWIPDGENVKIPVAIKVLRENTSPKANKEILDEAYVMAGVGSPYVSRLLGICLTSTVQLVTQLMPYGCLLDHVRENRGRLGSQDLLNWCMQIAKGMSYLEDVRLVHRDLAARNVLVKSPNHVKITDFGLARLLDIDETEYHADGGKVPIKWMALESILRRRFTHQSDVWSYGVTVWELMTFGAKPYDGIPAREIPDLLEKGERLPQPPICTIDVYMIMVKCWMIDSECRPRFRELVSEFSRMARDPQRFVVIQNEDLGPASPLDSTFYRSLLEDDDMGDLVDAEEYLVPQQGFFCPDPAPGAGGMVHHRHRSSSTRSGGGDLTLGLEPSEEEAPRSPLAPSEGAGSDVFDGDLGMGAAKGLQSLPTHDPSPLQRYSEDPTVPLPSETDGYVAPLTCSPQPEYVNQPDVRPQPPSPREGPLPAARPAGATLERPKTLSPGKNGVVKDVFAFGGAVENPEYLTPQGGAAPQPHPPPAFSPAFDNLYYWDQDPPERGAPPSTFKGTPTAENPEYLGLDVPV
- test protocol: Cell growth inhibition assay (CellTiterGlo), BaF3_HER2WT
- Assay type: cell-based
- condition info: 3-day treatment, CellTiterGlo, read-out: Cell growth inhibition activity, HER2 WT

# example entries with known answers
molecule	readout value
Cc1cc(Nc2ncnn3ccc(C4CN(C(=O)/C(C#N)=C/C(C)(C)C)C4)c23)ccc1Oc1ccn2ncnc2c1 [Example 89]	1500 to 5000 nM
C=C(CN(C)C)C(=O)N1C2CCC1CN(c1ccn3ncnc(Nc4ccc(Oc5ccn6ncnc6c5)c(C)c4)c13)C2 [Example 48]	200 to 500 nM
Cc1cc(Nc2ncnn3ccc(C4CCCN(C(=O)/C=C/CN(C)C)CC4)c23)ccc1Oc1ccn2ncnc2c1 (stereo not drawn) [Example 93]	< 200 nM
C=CC(=O)N1CC2(C1)CN(c1ccn3ncnc(Nc4ccc(Oc5ccn6ncnc6c5)c(C)c4)c13)C2 [Example 16]	200 to 500 nM
C=CC(=O)N1CCN(c2ccn3ncnc(Nc4ccc(Oc5ccc6c(c5)ncn6C)c(C)c4)c23)CC1 [Example 121]	< 200 nM
Cc1cc(Nc2ncnn3ccc(C4CN(C(=O)/C=C/CN5CCCC5)C4)c23)ccc1Oc1ccn2ncnc2c1 [Example 97]	< 200 nM
Cc1cc(Nc2ncnn3ccc(N4C5CCC4CN(C(=O)/C=C/CN(C)C)C5)c23)ccc1Oc1ccn2ncnc2c1 [Example 45]	< 200 nM
C=CC(=O)N1CCCC(c2ccn3ncnc(Nc4ccc(Oc5ccn6ncnc6c5)c(C)c4)c23)CC1 (stereo not drawn) [Example 9]	< 200 nM

Request the reported GI50 associated with Cc1cc(Nc2ncnn3ccc(C4CN(C(=O)/C=C/CN(C)C)C4)c23)ccc1Oc1cc2ncnn2cn1 [Example 158] < 200 nM

Now the same for C=CC(=O)N1CCC2CCC(C1)N2c1ccn2ncnc(Nc3ccc(Oc4ccn5ncnc5c4)c(C)c3)c12 (stereo not drawn) [Example 55] < 200 nM

Continue with C=CC(=O)N1CC=C(c2ccn3ncnc(Nc4ccc(Oc5ccn6ncnc6c5)c(C)c4)c23)C1 [Example 28, acetate] < 200 nM

Now the same for Cc1cc(Nc2ncnn3ccc(C4CCN(C(=O)/C=C/CN5CC(F)C5)CC4)c23)ccc1Oc1ccc2c(c1)ncn2C [Example 162] 200 to 500 nM

Next: Cc1cc(Nc2ncnn3ccc(C4(O)CN(C(=O)/C=C/CN(C)C)C4)c23)ccc1Oc1ccn2ncnc2c1 [Example 51] < 200 nM

Please give the result for C=CC(=O)NC1CCN(C(=O)c2ccn3ncnc(Nc4ccc(Oc5ccn6ncnc6c5)c(C)c4)c23)CC1 [Example 5] too. < 200 nM

Now try Cc1cc(Nc2ncnn3ccc(C4CN(C(=O)/C=C/CN(C)C)C4)c23)ccc1Oc1ccn2ccnc2c1 [Example 157] . < 200 nM
